The measured values listed here are drawn from patent US7534914B2.

study-target: UniProt P35408
test-details: cAMP assay in human EP4 transfectant
condition-summary: HEK293 cells expressing human EP4 receptors, 1 nM PGE2, 0.2 mM IBMX, 37° C. for 10 min
pIC50: −log10 of the molar value.
Please note: MET applies when pIC50 is 7 or greater, and NOT MET applies otherwise.

Sample answers from the record:
C[C@H](NC(=O)c1cc(Cl)ccc1COc1cc(F)ccc1F)c1ccc(C(=O)O)cc1 = MET
C[C@H](NC(=O)c1cc(Cl)ccc1COCC1CCCCC1)c1ccc(C(=O)O)cc1 = MET
C[C@H](NC(=O)c1cc(Cl)cnc1COc1cccc(F)c1)c1ccc(C(=O)O)cc1 = MET
C[C@H](NC(=O)c1cc(Cl)ccc1COc1ccccc1Cl)c1ccc(C(=O)O)cc1 = MET
C[C@H](NC(=O)c1cc(Cl)ccc1COC1CCCC1)c1ccc(C(=O)O)cc1 = NOT MET

Q. Decide: is the reported value of pIC50 for C[C@H](NC(=O)c1cc(Cl)ccc1COc1cncc(F)c1)c1ccc(C(=O)O)cc1 equal to or greater than 7?
A. NOT MET

Q. Decide: is the reported value of pIC50 for C[C@H](NC(=O)c1cc(Cl)ccc1COc1c(F)cccc1F)c1ccc(C(=O)O)cc1 equal to or greater than 7?
A. MET

Q. Decide: is the reported value of pIC50 for C[C@H](NC(=O)c1cc(F)cnc1COc1ccc(Cl)cc1)c1ccc(C(=O)O)cc1 equal to or greater than 7?
A. MET

Q. Decide: is the reported value of pIC50 for C[C@H](NC(=O)c1cc(Cl)ccc1COc1ccc(F)cc1F)c1ccc(C(=O)O)cc1 equal to or greater than 7?
A. MET

Q. Decide: is the reported value of pIC50 for C[C@H](NC(=O)c1cc(Cl)ccc1COc1ccccc1F)c1ccc(C(=O)O)cc1 equal to or greater than 7?
A. MET

###

study-target: human EP4 receptors (Homo sapiens)
Sequence (P35408 whole entry): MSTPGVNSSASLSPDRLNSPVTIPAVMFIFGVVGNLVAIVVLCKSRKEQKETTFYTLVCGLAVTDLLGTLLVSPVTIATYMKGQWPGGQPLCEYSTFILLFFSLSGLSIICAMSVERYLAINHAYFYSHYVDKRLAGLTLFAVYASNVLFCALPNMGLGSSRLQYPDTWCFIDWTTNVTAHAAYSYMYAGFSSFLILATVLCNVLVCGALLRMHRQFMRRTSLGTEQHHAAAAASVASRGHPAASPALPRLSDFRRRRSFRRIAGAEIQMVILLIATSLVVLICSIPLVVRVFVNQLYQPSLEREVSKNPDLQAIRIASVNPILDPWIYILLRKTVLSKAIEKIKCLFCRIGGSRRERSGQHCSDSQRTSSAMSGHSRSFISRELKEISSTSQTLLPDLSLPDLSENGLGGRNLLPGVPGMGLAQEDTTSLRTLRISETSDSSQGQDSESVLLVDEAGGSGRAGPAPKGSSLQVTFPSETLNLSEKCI
test-details: cAMP assay in human EP4 transfectant
condition-summary: HEK293 cells expressing human EP4 receptors, 1 nM PGE2, 0.2 mM IBMX, 37° C. for 10 min
# reported log10 of IC50; entries follow
// units: nM (pre-log); metric: IC50; scale: log10

# annotated cases, reported log10 of IC50 shown
C[C@H](NC(=O)c1cc(Cl)ccc1COc1ccc(Cl)cc1)c1ccc(C(=O)O)cc1 = 0.88
Cc1ccc(OCc2ccc(Cl)cc2C(=O)N[C@@H](C)c2ccc(C(=O)O)cc2)cc1 = 0.92
C[C@H](NC(=O)c1cc(Cl)ccc1COc1cccc(F)c1F)c1ccc(C(=O)O)cc1 = 1.18
C[C@H](NC(=O)c1cc(Cl)cnc1COc1ccc(F)cc1)c1ccc(C(=O)O)cc1 = 1.96
C[C@H](NC(=O)c1cc(Cl)ccc1COc1cc(F)cc(F)c1)c1ccc(C(=O)O)cc1 = 1.34

Here is the next item to consider.
Q. Sample C[C@H](NC(=O)c1cc(Cl)ccc1COc1ccc(F)c(F)c1)c1ccc(C(=O)O)cc1 — what was its log10 of IC50?
A. 1.20

###

study-target: human EP4 receptors (Homo sapiens)
test-details: cAMP assay in human EP4 transfectant
condition-summary: HEK293 cells expressing human EP4 receptors, 1 nM PGE2, 0.2 mM IBMX, 37° C. for 10 min
# reported IC50; entries follow
Dear colleague, please return just the value in nM, with no unit written.

C[C@H](NC(=O)c1cc(Cl)ccc1COc1ccc(F)cc1)c1ccc(C(=O)O)cc1 = 15
CNC(=O)c1cccc(OCc2ccc(Cl)cc2C(=O)N[C@@H](C)c2ccc(C(=O)O)cc2)c1 = 220

Q. Sample C[C@H](NC(=O)c1cc(Cl)ccc1COCC(C)(C)C)c1ccc(C(=O)O)cc1 — what was its IC50?
A. 120

Q. Sample CC(C)COCc1ccc(Cl)cc1C(=O)N[C@@H](C)c1ccc(C(=O)O)cc1 — what was its IC50?
A. 180
